# System: Calu-6
# assay_name: Compounds cellular killing (Cell Titer-Glo, 6 days, 2D)
# Type: cell-based
# test_parameters: Calu-6
measurement_label: cell-killing activity compared with Dxd

>>> val("CC[C@@]1(O)C(=O)OCc2c1cc1n(c2=O)Cc2c-1nc1cc(F)c(C)c3c1c2[C@@H](NC(=O)C(C)(F)CO)CC3 (single isomer, unassigned) [Example 68]")
"less potent than Dxd"
>>> val("CC[C@@]1(O)C(=O)OCc2c1cc1n(c2=O)Cc2c-1nc1cc(F)c(C)c3c1c2[C@@H](NC(=O)CCO)CC3")
"less potent than Dxd"
